Entries annotated with measured normalized growth
EXPERIMENT_SUMMARY: chemical genetic growth profiling, strain panel (AID 1159580);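 also: tested at 20 µM; growth read once vehicle control cultures reached saturation at 30 °C; 1 = growth at the plate median or of vehicle wells; lower values mean less growth of the strain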
CONDITION_DESCRIPTION: S. cerevisiae deletion strains, growth OD, locus YOL006C, strain TOP1, stronger effect = lower value
About 2,000 (36%) of roughly 5,500 compounds were called active. Roughly 18% stayed inconclusive and do not appear here. The list shows a part of the results.
ATTRIBUTE_MEASURED: normalized growth

>>> recorded_value("CCn1cc(C(=O)O)c(=O)c2cc(F)c(N3CCNCC3)nc21")
1.02
>>> recorded_value("CC1COc2c(N3CCN(C)CC3)c(F)cc3c(=O)c(C(=O)O)cn1c23 (stereo not given)")
1.02
>>> recorded_value("COc1c(N2CCNC(C)C2)c(F)cc2c(=O)c(C(=O)O)cn(C3CC3)c12 (stereo not given)")
0.936
>>> recorded_value("C[C@H]1COc2c(N3CCN(C)CC3)c(F)cc3c(=O)c(C(=O)O)cn1c23")
1.05
>>> recorded_value("CCn1cc(C(=O)O)c(=O)c2cc(F)c(N3CCNC(C)C3)c(F)c21 (stereo not given)")
1.08

---

EXPERIMENT_SUMMARY: chemical genetic growth profiling, strain panel (AID 1159580)
CONDITION_DESCRIPTION: S. cerevisiae deletion strains, growth OD, locus YOR001W, strain rrp6, stronger effect = lower value
Out of some 5,500 compounds screened, about 2,000 (36%) were called active. Not shown: some 18% with an inconclusive outcome. The list shows a part of the results.
ATTRIBUTE_MEASURED: normalized growth

>>> recorded_value("CN1C2CCC1CC(OC(c1ccccc1)c1ccccc1)C2 (stereo unspecified)")
0.99
>>> recorded_value("CN1C2CCC1CC(OC(c1ccccc1)c1ccccc1N)C2 (stereo unspecified)")
1.01
>>> recorded_value("C[n+]1c2cc(N)ccc2cc2ccc(N)cc21")
0.442
>>> recorded_value("COc1ccc(C(CN(C)C)C2(O)CCCCC2)cc1 (stereo unspecified)")
1.01
>>> recorded_value("COc1ccc(C(c2ccc(OC)cc2)C(Cl)(Cl)Cl)cc1")
0.987
>>> recorded_value("CCOC(=O)n1ccn(C)c1=S")
0.949
>>> recorded_value("CN1C2C[C@H](OC(=O)[C@H](CO)c3ccccc3)C[C@H]1[C@@H](O)C2")
1.04
>>> recorded_value("c1ccc2c(c1)CCCC2C1=NCCN1 (stereo unspecified)")
1.02
>>> recorded_value("CN(C)CCCC1(c2ccc(F)cc2)OCc2cc(C#N)ccc21 (stereo unspecified)")
0.987
>>> recorded_value("COc1cc([C@@H]2c3cc4c(cc3[C@@H](O)C3COC(=O)C32)OCO4)cc(OC)c1O (stereo partly specified)")
0.979
>>> recorded_value("COc1cc([C@@H]2c3cc4c(cc3C(OC3O[C@@H]5COC(C)O[C@H]5[C@H](O)[C@H]3O)C3COC(=O)[C@@H]32)OCO4)cc(OC)c1O (stereo partly specified)")
1.03

---

EXPERIMENT_SUMMARY: chemical genetic growth profiling, strain panel (AID 1159580);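 also: tested at 20 µM; growth read once vehicle control cultures reached saturation at 30 °C; 1 = growth at the plate median or of vehicle wells; lower values mean less growth of the strain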
CONDITION_DESCRIPTION: S. cerevisiae deletion strains, growth OD, locus YMR263W, strain SAP30, stronger effect = lower value
Screen size: about 5,500 compounds; about 2,000 (36%) were called active. Roughly 18% stayed inconclusive and do not appear here. The list shows a part of the results.
ATTRIBUTE_MEASURED: normalized growth

>>> recorded_value("Cc1ccc(C)n1-c1ccc(C(=O)NNC(=O)c2ccc3nccnc3c2)cc1")
0.986
>>> recorded_value("CC[C@@]1(O)C[C@H](O[C@H]2C[C@H](N(C)C)[C@H](O)[C@H](C)O2)c2c(cc3c(c2O)C(=O)c2c(O)cccc2C3=O)[C@H]1C(=O)OC")
0.92
>>> recorded_value("CCOC(=O)CNc1ccc(F)cc1")
0.983
>>> recorded_value("CC[C@H]1OC(=O)[C@H](C)[C@@H](O[C@H]2C[C@@](C)(OC)[C@@H](O)[C@H](C)O2)[C@H](C)[C@@H](O[C@@H]2O[C@H](C)C[C@H](N(C)C)[C@H]2O)[C@](C)(OC)C[C@@H](C)C(=O)[C@H](C)[C@@H](O)[C@]1(C)O")
0.987
>>> recorded_value("Cc1onc(-c2c(Cl)cccc2Cl)c1-c1nc(-c2ccc3c(c2)OCCO3)cs1")
0.993
>>> recorded_value("C/C(=C\\C(=O)Nc1ccc(F)cc1)Nc1ccc(F)cc1")
1.01
>>> recorded_value("CC[N+](CC)(CC)CC")
0.994
>>> recorded_value("O=C(O)[C@@H]1CCN1")
0.998
>>> recorded_value("COc1ccc(C(=O)CC(=O)O)c2c1C=CC(C)(C)O2")
1.01

---

EXPERIMENT_SUMMARY: chemical genetic growth profiling, strain panel (AID 1159580);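 also: tested at 20 µM; growth read once vehicle control cultures reached saturation at 30 °C; 1 = growth at the plate median or of vehicle wells; lower values mean less growth of the strain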
CONDITION_DESCRIPTION: S. cerevisiae deletion strains, growth OD, locus YHR129C, strain ARP1, stronger effect = lower value
About 2,000 (36%) of roughly 5,500 compounds were called active. About 18% were inconclusive and are not listed. The list shows a part of the results.
Entries annotated with measured normalized growth
ATTRIBUTE_MEASURED: normalized growth

>>> recorded_value("Cc1ccc(S(=O)(=O)NC(=O)NN2CCCCCC2)cc1")
0.993
>>> recorded_value("COc1cc([C@@H]2c3cc4c(cc3C(OC3O[C@@H]5COC(C)O[C@H]5[C@H](O)[C@H]3O)C3COC(=O)[C@@H]32)OCO4)cc(OC)c1O (stereo not given in full)")
0.998
>>> recorded_value("CCC[C@H](N[C@@H](C)C(=O)N1[C@H](C(=O)O)C[C@@H]2CCCC[C@@H]21)C(=O)OCC")
1.01
>>> recorded_value("COc1c(N2CCNC(C)C2)c(F)cc2c(=O)c(C(=O)O)cn(C3CC3)c12 (stereo not given)")
1
>>> recorded_value("CCCCNC(=O)NS(=O)(=O)c1ccc(C)cc1")
0.996
>>> recorded_value("CC(=O)O[C@H]1C[C@@H](OC(C)=O)C(C)(C)C2CC(=O)[C@]3(C)C(CC[C@@]4(C)[C@H](C(=O)O)OC(=O)C5OC543)[C@]21C (stereo not given in full)")
0.987
>>> recorded_value("COc1ccc(OC)c(C(O)CNC(=O)CN)c1 (stereo not given)")
0.996
>>> recorded_value("CCn1cc(C(=O)O)c(=O)c2cc(F)c(N3CCNCC3)nc21")
1.01
>>> recorded_value("O=C(O)c1cc2cc(F)ccc2[nH]1")
1
>>> recorded_value("Cn1c(=O)c2c(ncn2CC(O)CO)n(C)c1=O (stereo not given)")
1.01

---

EXPERIMENT_SUMMARY: chemical genetic growth profiling, strain panel (AID 1159580);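 also: tested at 20 µM; growth read once vehicle control cultures reached saturation at 30 °C; 1 = growth at the plate median or of vehicle wells; lower values mean less growth of the strain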
CONDITION_DESCRIPTION: S. cerevisiae deletion strains, growth OD, locus YOL006C, strain TOP1, stronger effect = lower value
Hit rate of the full screen: of about 5,500 compounds, about 2,000 (36%) were called active. About 18% were inconclusive and are not listed. Some of the results follow.
I'd appreciate it if you marked entries label 1 when normalized growth is lower than 1 and label 0 when it is not.

>>> category("O=C(O)CCCc1ccc(N(CCCl)CCCl)cc1")
"label 0"
>>> category("Cc1ccc(C)n1-c1ccc(C(=O)NNS(=O)(=O)c2ccc(Cl)cc2)cc1")
"label 0"
>>> category("C/C=C(\\C)C(=O)O[C@H]1C[C@@H](OC(C)=O)[C@@]2(C(=O)OC)CO[C@@H]3C2[C@]12CO[C@](O)(C(=O)OC)[C@H]2[C@](C)(C12O[C@@]1(C)[C@H]1C[C@@H]2OC2OC=C[C@@]21O)[C@@H]3O (stereo partly specified)")
"label 1"
>>> category("COC(=O)/C=C/C(C)=C/C=C/C(C)=C/C=C/C=C(C)/C=C/C=C(C)/C=C/C(=O)O")
"label 0"
>>> category("C=C[C@@](C)(O)CCC1C(=C)C[C@H](O)C2C(C)(C)CCCC12C (stereo partly specified)")
"label 1"
>>> category("CN(C)CCN(Cc1cccs1)c1ccccn1")
"label 1"
>>> category("COc1cc2c(cc1OC)C(=O)c1ccc(OC)c(OC)c1OCC(=O)C2")
"label 0"
>>> category("C=C[C@@](C)(O)CCC1C(=C)CCC2[C@@](C)(CO)CCC[C@]12C (stereo partly specified)")
"label 1"
>>> category("Cc1ccc(-c2csc(CC#N)n2)cc1C")
"label 1"
>>> category("CN(C)C=Nc1ncccc1OCc1ccc(Cl)c(Cl)c1")
"label 1"
>>> category("COc1ccc2c(c1)OC/C(=C/c1ccc(OC)c(OC)c1)C2=O")
"label 1"
>>> category("COC(=O)[C@@H]1OC(=O)C2OC23[C@@]1(C)CCC1[C@]2(C)C(C[C@H](O)[C@]13C)C(C)(C)[C@H](OC(C)=O)C[C@@H]2OC(C)=O (stereo partly specified)")
"label 0"
>>> category("C/C(=C\\C(=O)Nc1ccc(F)cc1)Nc1ccc(F)cc1")
"label 0"
>>> category("CC(C)NCC(O)COc1cccc2[nH]ccc12 (stereo unspecified)")
"label 0"
>>> category("Nc1nc(=S)c2[nH]cnc2[nH]1")
"label 0"
>>> category("N[C@@H](Cc1ccc(N(CCCl)CCCl)cc1)C(=O)O")
"label 1"
